Target: NK3 (Homo sapiens, UniProt P29371)
Sequence (P29371 whole entry): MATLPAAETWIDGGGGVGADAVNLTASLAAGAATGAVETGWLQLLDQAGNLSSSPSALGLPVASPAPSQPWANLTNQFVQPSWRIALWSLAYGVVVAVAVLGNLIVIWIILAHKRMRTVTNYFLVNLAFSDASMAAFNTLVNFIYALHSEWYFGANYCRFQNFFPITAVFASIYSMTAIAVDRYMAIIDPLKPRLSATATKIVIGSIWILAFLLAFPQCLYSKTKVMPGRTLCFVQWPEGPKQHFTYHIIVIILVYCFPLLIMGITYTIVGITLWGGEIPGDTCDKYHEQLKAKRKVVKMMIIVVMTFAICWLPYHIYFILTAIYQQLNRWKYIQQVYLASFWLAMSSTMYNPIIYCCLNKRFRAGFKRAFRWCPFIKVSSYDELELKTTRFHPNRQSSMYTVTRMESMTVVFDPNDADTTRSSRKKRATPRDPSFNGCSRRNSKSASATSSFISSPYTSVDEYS
Assay: Signal transduction (ST), intracellular Ca++ (FLIPR), NK3
Format: cell-based
Settings: read-out: pIC50 NK3 (converted)
MEASURED PARAMETER: IC50 (nM)

COMPOUND	IC50, nM
O=C(C1CCc2cc(F)ccc2O1)N1CCC(N2CCN([C@H]3CCN(C(=O)c4cc(C(F)(F)F)cc(C(F)(F)F)c4)[C@H](Cc4ccccc4)C3)CC2)C1 (stereo partly drawn)	6310
O=C(c1cccs1)N1CC[C@H](N2CCN([C@H]3CCN(C(=O)c4cc(C(F)(F)F)cc(C(F)(F)F)c4)[C@H](Cc4ccccc4)C3)CC2)C1	631
O=C(c1ccoc1)N1CC[C@@H](N2CCN([C@H]3CCN(C(=O)c4cc(C(F)(F)F)cc(C(F)(F)F)c4)[C@H](Cc4ccc(Cl)c(Cl)c4)C3)CC2)C1	794
O=C([C@H]1CCCN1)N1CCC(N2CCN([C@H]3CCN(C(=O)c4cc(C(F)(F)F)cc(C(F)(F)F)c4)[C@H](Cc4ccccc4)C3)CC2)C1 (stereo partly drawn)	1580
CC(C)N1CC(CN2CCC(N3CCN(C4CCN(C(=O)c5cc(C(F)(F)F)cc(C(F)(F)F)c5)C(Cc5ccccc5)C4)CC3)C2)OC1=O (stereo not drawn)	3980
CC1(C)OC(=O)[C@@H](CC(=O)N2CCC(N3CCN([C@H]4CCN(C(=O)c5cc(C(F)(F)F)cc(C(F)(F)F)c5)[C@H](Cc5ccccc5)C4)CC3)C2)O1 (stereo partly drawn)	7940
O=C(c1cc(C(F)(F)F)cc(C(F)(F)F)c1)N1CC[C@H](N2CCN(C3CCN(Cc4nc5ccccc5[nH]4)C3)CC2)C[C@H]1Cc1ccccc1 (stereo partly drawn)	6310
O=C(c1ccoc1)N1CCC(N2CCN(C3CCN(C(=O)c4cc(C(F)(F)F)cc(C(F)(F)F)c4)C(Cc4ccccc4)C3)CC2)C1 (single isomer, unassigned) [Compound 33]	501
CC(C)(C)C(=O)N1CCC(N2CCN([C@@H]3CCN(C(=O)c4cc(C(F)(F)F)cc(C(F)(F)F)c4)[C@H](Cc4ccc(F)c(F)c4)C3)CC2)C1 (single isomer, unassigned)	501
O=C(c1cccnc1Cl)N1CCC(N2CCN([C@H]3CCN(C(=O)c4cc(C(F)(F)F)cc(C(F)(F)F)c4)[C@H](Cc4ccccc4)C3)CC2)C1 (stereo partly drawn)	501

[P] O=C(C1COc2ccccc2O1)N1CCC(N2CCN([C@H]3CCN(C(=O)c4cc(C(F)(F)F)cc(C(F)(F)F)c4)[C@H](Cc4ccccc4)C3)CC2)C1 (stereo partly drawn)
[Q] O=C(c1cnccn1)N1CCC(N2CCN(C3CCN(C(=O)c4cc(C(F)(F)F)cc(C(F)(F)F)c4)C(Cc4ccc(Cl)c(Cl)c4)C3)CC2)C1 (stereo not drawn)
[R] Cn1cccc1C(=O)CN1CCC(N2CCN([C@H]3CCN(C(=O)c4cc(C(F)(F)F)cc(C(F)(F)F)c4)[C@H](Cc4ccccc4)C3)CC2)C1 (stereo partly drawn)
[S] O=C(c1ccco1)N1CC[C@H](N2CCN([C@H]3CCN(C(=O)c4cc(C(F)(F)F)cc(C(F)(F)F)c4)[C@H](Cc4ccc(Cl)c(Cl)c4)C3)CC2)C1
IN: Arrange items by their IC50 values in increasing order. Use the labels to give the ranking in the order requested.
OUT: Q, R, S, P
